- Tested on: SNB-75
- method.summary: NCI tumour cell line growth inhibition, 48 h
Activity calls are given as the source filed them. Rule as the data show it: active = GI50 up to about 1.1 µM and inactive = higher.
# GI50 annotations

[[record]]
molecule = "COc1cccc(C2c3cc4c(cc3OC(C)(N3CCCC3)C2C)OCO4)c1 (stereo not drawn)"
system = "SNB-75"
result = "3.18 µM (inactive)"

[[record]]
molecule = "CN(C)/N=N/c1ccc2[nH]c(=O)[nH]c2c1"
system = "SNB-75"
result = "> 100 µM (inactive)"


Kindly review the next molecule as well.
[ask] # input molecule: CC/C(=C\c1ccc(OC)cc1)c1ccc(OC)cc1 ; wanted: its GI50
[reply] > 100 µM (inactive)

###

- System: U-251
- method.summary: NCI tumour cell line growth inhibition, 48 h
Active and inactive are the calls of the source. Rule as the data show it: active = GI50 up to about 1.1 µM and inactive = higher.
Bench note: report the call from active, inactive

[[record]]
compound = "COc1cc(C2S/C(=C/c3ccccc3)C(=O)N2c2ccc(Cl)c(Cl)c2)cc(OC)c1OC (centres undefined)"
category = "inactive"

[[record]]
compound = "O=Cc1c(-c2ccccc2)nc2ccccc2c1O"
category = "inactive"

[[record]]
compound = "Cc1ccc2cc3c(ccc4ccccc43)c3c2c1CC3"
category = "inactive"

[[record]]
compound = "CCOC(=O)CC1NC(=O)CS1 (centres undefined)"
category = "inactive"

[[record]]
compound = "CCOC(=O)CCn1[nH]c(=O)c(Cl)c(Cl)c1=O"
category = "inactive"


[ask] Record lookup: outcome of this test for CC/C(=C\c1ccc(OC)cc1)c1ccc(OC)cc1 ?
[reply] inactive

[ask] Just curious, what result did O=C1C=Cc2c(I)sc(I)c21 get here?
[reply] inactive

[ask] Could you check what this test reported for COC(=O)C1C(OCc2ccccc2)C2CCC1(OC)C=C2C (centres undefined) ?
[reply] inactive

[ask] Just curious, what result did CCCCCCCCCCCCCCCC(=O)OCC1OC(n2ccc(N)nc2=O)C(O)C1O (centres undefined) get here?
[reply] inactive

[ask] How was COC(=O)c1cc(=O)n(-c2ccc3nn(C)nc3c2)cc1C(=O)OC classified in this test?
[reply] inactive

[ask] Per the records of this test, what outcome belongs to COc1cc2c(c(OC)c1OC)-c1ccc(SC)c(=O)cc1[C@@H](NC(=O)c1ccc(OC(C)=O)cc1)CC2 ?
[reply] active

###

- Test system: NCI/ADR-RES
- method.summary: NCI tumour cell line growth inhibition, 48 h
Activity calls are given as the source filed them. No stated cut-off is given here; in the data, active = GI50 up to about 1.1 µM and inactive = higher.
Choose the fitting class; nothing outside active, inactive is accepted.

The following compounds have reported results that may help.
[[record]]
compound = "CCCCCC(=O)N[C@@H](c1ccco1)[C@@H](O)C(=O)O[C@H]1C[C@@]2(O)[C@@H](OC(=O)c3ccccc3)[C@@H]3[C@]4(OC(C)=O)CO[C@@H]4C[C@H](O)[C@@]3(C)C(=O)[C@H](OC(C)=O)C(=C1C)C2(C)C"
category = "inactive"

[[record]]
compound = "COc1c2cc(C(C)(C)C)cc1Cc1cccc(c1O)Cc1cc(C(C)(C)C)cc(c1OC)Cc1cccc(c1O)Cc1cc(C(C)(C)C)cc(c1OC)Cc1cccc(c1O)C2"
category = "inactive"

[[record]]
compound = "CCOC(=O)CCN1C(=O)c2ccc(NC(=O)C(=O)O)cc2S1(=O)=O"
category = "inactive"

[[record]]
compound = "COC(=O)C1CCN(C(=O)OC(C)(C)C)CC1"
category = "inactive"

[[record]]
compound = "COc1ccc2[nH]c(C(=O)N3CC(CCl)c4c3cc(N)c3ccccc43)cc2c1 (centres undefined)"
category = "active"


[ask] Status in this test for O=c1[nH]nc(Cc2ccccc2)n1/N=C\CC/C=N\n1c(Cc2ccccc2)n[nH]c1=O ?
[reply] inactive

[ask] Returns: the outcome recorded for CSC(SC)=C(C#N)C(=O)Nc1cccc(Cl)c1 in this assay.
[reply] inactive

[ask] Called result for O=C(/C=C/c1ccc(-c2ccccc2)cc1)NCc1ccc(C(=O)NCc2ccccc2)cc1
[reply] inactive

[ask] Give the logged outcome of this assay for the following compound: O=C1C(Sc2ccc3ccccc3c2)=C(Sc2ccc3ccccc3c2)C(=O)c2ccccc21
[reply] inactive
